- assay remarks: NCI Yeast Anticancer Drug Screen. Data for the mlh1 rad18 strain (AID 175)
- run parameters: S. cerevisiae mlh1 rad18 strain growth inhibition; at 5.0 µM (retest, dose inferred, filed as 0.5); stronger effect = higher value
Compounds without any hit were thinned out: in the full panel of roughly 79,000, 15% have a hit.
Label rule, in plain words: growth inhibition of 20% and up is 1.0, under 20% is 0.0.

Data request: State whether the measured growth inhibition reaches 20%, counting equality as reaching it, for O=C(/C(=C/c1ccc(O)cc1)c1ccccc1)c1ccccc1
Data returned: 0.0

Data request: Does growth inhibition meet or surpass 20% for CCN(CC)CC(=O)c1ccc2cc(Cl)c3ccccc3c2c1 ?
Data returned: 1.0

Data request: Given the entry O=C1SS(=O)c2ccccc21 (stereo not given) , answer whether its growth inhibition meets or surpasses 20%.
Data returned: 1.0

Data request: Reported growth inhibition reaches at least 20% for O=C(NCCNCCNC(=O)c1cc(-c2ccccc2)nc2ccccc12)c1cc(-c2ccccc2)nc2ccccc12 ?
Data returned: 0.0

Data request: Check if growth inhibition >= 20% (inclusive). Item: CCOC(=O)Nc1ccc(C)c(NC(=O)OCC)c1
Data returned: 1.0

Data request: Test whether the molecule COc1ccc2nc3cccc([N+](=O)[O-])c3c(NCCNCCN(C)C)c2c1 records growth inhibition of 20% or higher.
Data returned: 1.0

Data request: Could you verify whether the entry CCN(CC)CCC(=O)Nc1ccc2sc3ccccc3c(=O)c2n1 shows growth inhibition of no less than 20%?
Data returned: 0.0

Data request: Check the entry O=C1CCC(Cc2ccccc2)CN1 (stereo not given) : does growth inhibition equal or exceed 20%?
Data returned: 0.0

Data request: Is the recorded value of growth inhibition equal to or greater than 20% for this molecule? CSC(=S)N/N=C/c1ccccc1
Data returned: 1.0

Data request: Check this molecule for growth inhibition at or above 20%: CC(=O)/C(=C\c1ccc(Cl)c(Cl)c1)C(=O)C(C)CN(C)C (stereo not given)
Data returned: 0.0

Data request: Does OB(O)c1ccccc1C#Cc1ccccc1 have a reported growth inhibition of at least 20%?
Data returned: 0.0

Data request: Form field: growth inhibition at least 20%? Entry: CC(=O)NC(c1nc2cc(C)c(C)cc2[nH]1)c1nc2cc(C)c(C)cc2[nH]1
Data returned: 1.0

Data request: API: above_or_equal(metric=growth inhibition, cutoff=20%) for item CCCCN(CCC#N)c1ccc(/C=C/c2ccnc3ccccc23)cc1
Data returned: 0.0

Data request: Say whether O=C1C[C@H]2[C@H](c3ccc(Br)cc3)[C@H]3C(=O)c4ccccc4NC(=O)[C@@H]3[C@@]2(O)c2ccccc2N1 shows growth inhibition of 20% or more.
Data returned: 1.0

Data request: Kindly determine if growth inhibition recorded for CCCCCCCCCCCCCCCCCCNc1nc(=O)n(C2CC(OP(=O)(O)OCC3OC(n4cc(F)c(=O)[nH]c4=O)CC3O)C(CO)O2)cc1F (stereo not given) is above or exactly 20%.
Data returned: 1.0

Data request: Kindly determine if growth inhibition recorded for CCCCCCCCN1COCC(COc2ccccc2C)OC1 (stereo not given) is above or exactly 20%.
Data returned: 0.0

Data request: Decide: growth inhibition of COC(=O)c1cnc(Cl)c([N+](=O)[O-])c1 >= 20%?
Data returned: 1.0

Data request: Please tell me: is the molecule O=[N+]([O-])c1ccc2[nH]c3c(-c4ccccc4)nccc3c2c1 at or over 20% in terms of growth inhibition?
Data returned: 0.0

Data request: hey, is growth inhibition for this one >= 20%? CC1(C)OC(=O)C(=Cc2ccc([N+](=O)[O-])s2)C(=O)O1
Data returned: 0.0

Data request: Does the reported growth inhibition for N#CCCC1C(C#N)C2(Cl)CC1(Cl)C(Cl)=C2Cl (stereo not given) fall at or above the 20% mark?
Data returned: 0.0

Data request: For this molecule, is measured growth inhibition 20% or higher? ClCCCOc1c(Cl)cc(Cl)cc1Cl
Data returned: 0.0

Data request: Threshold query (growth inhibition >= 20%) on CN(C)/C(=N/C(=S)Nc1ccccc1)SCc1ccccc1
Data returned: 0.0

Data request: Quick check, growth inhibition >= 20%? O=C(CN(c1ccccc1)c1ccccc1)n1nnc2ccccc21
Data returned: 0.0

Data request: Could you tell me if the measured growth inhibition of COc1cc2c(cc1OC)[C@@H](Nc1ccc(C#N)cc1)C1COC(=O)[C@@H]1C2c1cc(OC)c(O)c(OC)c1 (stereo not given in full) reaches 20% or more?
Data returned: 0.0

Data request: Is the recorded value of growth inhibition equal to or greater than 20% for this molecule? COc1ccccc1/C=C\C(=O)C1COCN1 (stereo not given)
Data returned: 0.0

Data request: Hi team, for CNC(=O)OCc1c2ccncc2c(C)c2c1[nH]c1ccccc12 , is the recorded growth inhibition at or above 20%?
Data returned: 1.0

Data request: growth inhibition >= 20% for CC1=C(C)C(=O)C2=C(OCCO2)C1=O ?
Data returned: 0.0

Data request: Assess whether reported growth inhibition for COC(=O)/C(C#N)=C\NC(=S)C(N)=S sits at 20% or higher.
Data returned: 1.0

Data request: Could you tell me if the measured growth inhibition of C=CCNC1=C2C[C@@H](C)C[C@H](OC)[C@H](O)[C@@H](C)/C=C(\C)[C@H](OC(N)=O)[C@@H](OC)/C=C\C=C(/C)C(=O)NC(=CC1=O)C2=O reaches 20% or more?
Data returned: 0.0

Data request: Say whether CCN1CCC(O)(c2ccc(Oc3ccc(C)cc3)cc2)C(C(=O)c2ccc(Oc3ccc(C)cc3)cc2)C1 (stereo not given) shows growth inhibition of 20% or more.
Data returned: 1.0

The reported measurements were obtained from PubChem BioAssay (NCI).
